subject_of_test: L-type amino acid transporter 1 (LAT-1/SLC7A5) (Homo sapiens, UniProt Q01650)
Construct: with CD98 (4F2hc; SLC3A2, also printed as SLC2A3)
Sequence (Q01650 whole entry): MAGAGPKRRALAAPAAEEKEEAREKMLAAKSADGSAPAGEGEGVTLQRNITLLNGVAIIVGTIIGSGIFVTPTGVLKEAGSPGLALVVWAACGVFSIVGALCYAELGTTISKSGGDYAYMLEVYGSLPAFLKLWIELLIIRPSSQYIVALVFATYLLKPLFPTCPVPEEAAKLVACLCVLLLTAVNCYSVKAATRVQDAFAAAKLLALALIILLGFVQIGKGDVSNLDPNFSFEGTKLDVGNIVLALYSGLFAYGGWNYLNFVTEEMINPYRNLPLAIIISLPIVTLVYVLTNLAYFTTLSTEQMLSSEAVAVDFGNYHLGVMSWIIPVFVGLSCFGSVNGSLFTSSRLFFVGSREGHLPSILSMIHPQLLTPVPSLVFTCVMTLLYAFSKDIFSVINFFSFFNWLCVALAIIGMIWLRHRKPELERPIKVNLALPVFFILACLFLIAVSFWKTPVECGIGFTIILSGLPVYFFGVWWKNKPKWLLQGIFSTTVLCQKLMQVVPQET
Sequence (P08195 103-630 partner): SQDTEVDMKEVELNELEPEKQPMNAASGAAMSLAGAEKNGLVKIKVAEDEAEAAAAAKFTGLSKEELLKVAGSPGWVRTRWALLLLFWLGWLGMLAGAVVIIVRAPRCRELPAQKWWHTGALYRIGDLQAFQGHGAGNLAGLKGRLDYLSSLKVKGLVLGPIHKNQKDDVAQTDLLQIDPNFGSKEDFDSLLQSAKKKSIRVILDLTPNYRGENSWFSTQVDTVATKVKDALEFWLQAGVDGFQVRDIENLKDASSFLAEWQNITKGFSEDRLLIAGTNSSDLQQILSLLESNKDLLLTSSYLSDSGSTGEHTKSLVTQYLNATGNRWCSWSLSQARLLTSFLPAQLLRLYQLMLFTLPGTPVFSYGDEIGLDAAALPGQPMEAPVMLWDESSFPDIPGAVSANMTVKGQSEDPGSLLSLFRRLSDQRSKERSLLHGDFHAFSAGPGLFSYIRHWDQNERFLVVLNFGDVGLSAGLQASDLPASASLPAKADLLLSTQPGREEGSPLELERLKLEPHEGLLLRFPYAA
experiment_description: inhibition of [[…]6, […]]-L-leucine uptake in hCMEC/D3 cells, UPLC-MS/MS
pIC50: −log10 of the molar value.
Reported pIC50 values for the following compounds.
measurement_label: pIC50

* NC1(C(=O)O)CC2CCC1C2 (centres unmarked) | 4.04
* Nc1cc(COc2c(Cl)cc(C[C@H](N)C(=O)O)cc2Cl)c2oc(-c3ccccc3)nc2c1 | 6.99
